// endpoint IC50 / system Vascular endothelial growth factor receptor 1 (Homo sapiens)

Here is how some compounds turned out for IC50.
Give the measured IC50 for Nc1nc(Nc2cccc(Br)c2)c2ccn(Cc3ccc(Cl)cc3)c2n1 79.9 µM

Note down IC50 recorded for Nc1nc(Nc2cccc(Br)c2)c2ccn(Cc3ccccc3)c2n1 99.3 µM

Indicate its recorded IC50; the compound in question is Nc1nc(Nc2cccc(Br)c2)c2ccn(Cc3cccc4ccccc34)c2n1 150 µM

Annotate the compound COc1cc(Cn2ccc3c(Nc4cccc(Br)c4)nc(N)nc32)cc(OC)c1OC with its measured IC50. 156 µM

Please supply the value of reported IC50 for the item Nc1nc(Nc2cccc(Br)c2)c2ccn(Cc3ccc4ccccc4c3)c2n1 50.8 µM

---
Recall and state the measured IC50 for Nc1nc(Nc2cccc(Br)c2)c2ccn(Cc3ccc(-c4ccccc4)cc3)c2n1 . > 200 µM

----------
tested.target: Vascular endothelial growth factor receptor 2 (Homo sapiens, UniProt P35968)
Sequence (P35968 whole entry): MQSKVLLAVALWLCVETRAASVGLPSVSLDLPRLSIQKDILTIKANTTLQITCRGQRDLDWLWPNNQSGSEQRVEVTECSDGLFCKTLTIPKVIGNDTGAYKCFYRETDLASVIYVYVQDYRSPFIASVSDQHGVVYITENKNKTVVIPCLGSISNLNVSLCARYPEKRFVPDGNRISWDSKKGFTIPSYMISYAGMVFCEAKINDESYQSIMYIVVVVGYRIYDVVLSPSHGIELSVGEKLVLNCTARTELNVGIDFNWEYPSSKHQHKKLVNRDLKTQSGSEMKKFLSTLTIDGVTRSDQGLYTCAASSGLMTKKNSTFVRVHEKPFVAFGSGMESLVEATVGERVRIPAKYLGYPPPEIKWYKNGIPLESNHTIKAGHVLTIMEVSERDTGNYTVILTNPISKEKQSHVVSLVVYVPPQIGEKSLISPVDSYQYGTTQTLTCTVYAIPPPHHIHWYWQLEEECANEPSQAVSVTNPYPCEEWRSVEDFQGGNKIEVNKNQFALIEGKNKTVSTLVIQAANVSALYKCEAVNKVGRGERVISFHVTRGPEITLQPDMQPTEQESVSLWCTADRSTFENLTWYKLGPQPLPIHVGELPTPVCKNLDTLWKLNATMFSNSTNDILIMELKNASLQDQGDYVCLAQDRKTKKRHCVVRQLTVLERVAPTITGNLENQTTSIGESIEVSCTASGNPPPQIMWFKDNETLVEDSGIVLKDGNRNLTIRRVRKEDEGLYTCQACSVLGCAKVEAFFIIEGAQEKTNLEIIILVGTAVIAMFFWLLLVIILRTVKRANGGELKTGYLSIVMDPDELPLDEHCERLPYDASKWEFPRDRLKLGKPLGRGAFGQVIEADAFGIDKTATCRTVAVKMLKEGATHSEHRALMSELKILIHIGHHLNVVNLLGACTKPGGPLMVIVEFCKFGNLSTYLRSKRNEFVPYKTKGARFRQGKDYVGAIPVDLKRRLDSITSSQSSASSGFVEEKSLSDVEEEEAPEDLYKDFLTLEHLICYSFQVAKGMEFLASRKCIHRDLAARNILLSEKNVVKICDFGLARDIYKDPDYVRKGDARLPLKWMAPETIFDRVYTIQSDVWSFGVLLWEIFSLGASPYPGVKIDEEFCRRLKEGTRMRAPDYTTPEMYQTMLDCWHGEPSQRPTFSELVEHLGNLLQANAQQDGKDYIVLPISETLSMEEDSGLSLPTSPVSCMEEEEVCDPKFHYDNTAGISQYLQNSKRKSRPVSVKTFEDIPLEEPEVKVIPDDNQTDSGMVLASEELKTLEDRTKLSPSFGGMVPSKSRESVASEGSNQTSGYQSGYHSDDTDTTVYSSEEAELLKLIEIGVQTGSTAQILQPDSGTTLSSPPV
metric: pIC50
# pIC50 is unitless: minus log10 of the molar concentration; print number only

Enter pIC50 (test system Vascular endothelial growth factor receptor 2 (Homo sapiens, UniProt P35968)) for Nc1nc(Nc2cccc(Br)c2)c2cc(Cc3ccc(Cl)cc3)[nH]c2n1 5.08

----------
assay.name: Toxicity in NCr nu/nu mouse assessed as body weight loss administered for 3 days per week measured after 6 weeks
Type: organism-based
experimental.parameters: NCr nu/nu, in vivo
metric: MTD at 1008 h

Dear colleague, please send me the reported MTD at 1008 h for Nc1nc(Nc2cccc(Br)c2)c2ccn(Cc3ccccc3Cl)c2n1 when you can. 35 mg/kg

----------
tested.target: Vascular endothelial growth factor receptor 1 (Homo sapiens)
metric: IC50 (µM)
Field: numeric (µM). Do not append units.

Report IC50 on Vascular endothelial growth factor receptor 1 (Homo sapiens) for this entry: Nc1nc(Nc2cccc(Br)c2)c2cc(Cc3ccc(Cl)cc3)[nH]c2n1 42.7

----------
tested.target: Platelet-derived growth factor receptor beta (Homo sapiens)
Sequence (P09619 whole entry): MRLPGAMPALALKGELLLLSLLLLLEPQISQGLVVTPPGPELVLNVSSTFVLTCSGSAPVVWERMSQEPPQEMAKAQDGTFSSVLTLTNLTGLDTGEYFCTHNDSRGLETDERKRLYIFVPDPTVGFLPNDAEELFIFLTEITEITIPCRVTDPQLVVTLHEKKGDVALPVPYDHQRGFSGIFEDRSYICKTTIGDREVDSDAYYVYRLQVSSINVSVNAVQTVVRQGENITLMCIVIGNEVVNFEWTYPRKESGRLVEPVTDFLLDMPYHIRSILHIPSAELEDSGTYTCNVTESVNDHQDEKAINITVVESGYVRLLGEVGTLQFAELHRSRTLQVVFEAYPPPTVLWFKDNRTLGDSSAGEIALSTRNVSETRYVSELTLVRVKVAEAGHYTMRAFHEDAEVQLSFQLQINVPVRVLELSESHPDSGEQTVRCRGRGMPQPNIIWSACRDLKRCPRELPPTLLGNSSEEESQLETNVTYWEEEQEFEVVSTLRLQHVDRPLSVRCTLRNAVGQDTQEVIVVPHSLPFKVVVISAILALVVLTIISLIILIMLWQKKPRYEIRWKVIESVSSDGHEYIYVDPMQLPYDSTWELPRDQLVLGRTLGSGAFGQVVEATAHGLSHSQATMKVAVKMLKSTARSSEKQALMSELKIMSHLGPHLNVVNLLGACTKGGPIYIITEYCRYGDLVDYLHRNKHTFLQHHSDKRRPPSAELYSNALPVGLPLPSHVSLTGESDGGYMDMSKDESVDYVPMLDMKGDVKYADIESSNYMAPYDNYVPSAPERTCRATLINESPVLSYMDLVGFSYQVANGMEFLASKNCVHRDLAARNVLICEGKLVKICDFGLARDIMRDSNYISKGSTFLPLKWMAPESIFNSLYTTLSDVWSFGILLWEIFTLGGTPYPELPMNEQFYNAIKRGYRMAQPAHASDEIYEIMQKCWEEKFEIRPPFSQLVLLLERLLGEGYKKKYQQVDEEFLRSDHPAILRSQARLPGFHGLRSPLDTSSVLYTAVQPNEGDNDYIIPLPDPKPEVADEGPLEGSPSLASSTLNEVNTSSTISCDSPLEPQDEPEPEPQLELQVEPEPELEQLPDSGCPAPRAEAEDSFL
assay.name: Inhibition of PDGFBB-induced PDGFRbeta autophosphorylation in human SF539 cells incubated for 60 mins prior to PDGFBB-induction measured after 10 mins by phosphotyrosine ELISA
Type: cell-based, SF-539
pIC50: −log10 of the molar value.
# if value of pIC50 reaches 4, tag true (1); if it stays below, tag false (0)

Below are worked cases with known answers.
Reported pIC50 reaches at least 4 for Nc1nc(Nc2cccc(Br)c2)c2ccn(Cc3ccc(Cl)cc3Cl)c2n1 ? true (1)

Given the entry Nc1nc(Nc2cccc(Br)c2)c2ccn(Cc3ccc4ccccc4c3)c2n1 , answer whether its pIC50 meets or surpasses 4. false (0)

Does Nc1nc(Nc2cccc(Br)c2)c2ccn(Cc3ccc(Cl)c(Cl)c3)c2n1 have a reported pIC50 of at least 4? false (0)

# check: pIC50 of Nc1nc(Nc2cccc(Br)c2)c2ccn(Cc3ccc(Cl)cc3)c2n1 is greater than or equal to 4 false (0)

Can Nc1nc(Nc2cccc(Br)c2)c2ccn(Cc3ccccc3)c2n1 be said to have pIC50 at or above 4? false (0)

New cases:
Does pIC50 meet or surpass 4 for COc1cc(Cn2ccc3c(Nc4cccc(Br)c4)nc(N)nc32)cc(OC)c1OC ? true (1)

For this compound, is measured pIC50 4 or higher? Cc1ccccc1Cn1ccc2c(Nc3cccc(Br)c3)nc(N)nc21 false (0)

Is pIC50 for Nc1nc(Nc2cccc(Br)c2)c2ccn(Cc3ccccc3Cl)c2n1 at or above 4? true (1)

----------
pIC50: −log10 of the molar value.
Record: pIC50 reported on Epidermal growth factor receptor (Homo sapiens, UniProt P00533).
Sequence (P00533 whole entry): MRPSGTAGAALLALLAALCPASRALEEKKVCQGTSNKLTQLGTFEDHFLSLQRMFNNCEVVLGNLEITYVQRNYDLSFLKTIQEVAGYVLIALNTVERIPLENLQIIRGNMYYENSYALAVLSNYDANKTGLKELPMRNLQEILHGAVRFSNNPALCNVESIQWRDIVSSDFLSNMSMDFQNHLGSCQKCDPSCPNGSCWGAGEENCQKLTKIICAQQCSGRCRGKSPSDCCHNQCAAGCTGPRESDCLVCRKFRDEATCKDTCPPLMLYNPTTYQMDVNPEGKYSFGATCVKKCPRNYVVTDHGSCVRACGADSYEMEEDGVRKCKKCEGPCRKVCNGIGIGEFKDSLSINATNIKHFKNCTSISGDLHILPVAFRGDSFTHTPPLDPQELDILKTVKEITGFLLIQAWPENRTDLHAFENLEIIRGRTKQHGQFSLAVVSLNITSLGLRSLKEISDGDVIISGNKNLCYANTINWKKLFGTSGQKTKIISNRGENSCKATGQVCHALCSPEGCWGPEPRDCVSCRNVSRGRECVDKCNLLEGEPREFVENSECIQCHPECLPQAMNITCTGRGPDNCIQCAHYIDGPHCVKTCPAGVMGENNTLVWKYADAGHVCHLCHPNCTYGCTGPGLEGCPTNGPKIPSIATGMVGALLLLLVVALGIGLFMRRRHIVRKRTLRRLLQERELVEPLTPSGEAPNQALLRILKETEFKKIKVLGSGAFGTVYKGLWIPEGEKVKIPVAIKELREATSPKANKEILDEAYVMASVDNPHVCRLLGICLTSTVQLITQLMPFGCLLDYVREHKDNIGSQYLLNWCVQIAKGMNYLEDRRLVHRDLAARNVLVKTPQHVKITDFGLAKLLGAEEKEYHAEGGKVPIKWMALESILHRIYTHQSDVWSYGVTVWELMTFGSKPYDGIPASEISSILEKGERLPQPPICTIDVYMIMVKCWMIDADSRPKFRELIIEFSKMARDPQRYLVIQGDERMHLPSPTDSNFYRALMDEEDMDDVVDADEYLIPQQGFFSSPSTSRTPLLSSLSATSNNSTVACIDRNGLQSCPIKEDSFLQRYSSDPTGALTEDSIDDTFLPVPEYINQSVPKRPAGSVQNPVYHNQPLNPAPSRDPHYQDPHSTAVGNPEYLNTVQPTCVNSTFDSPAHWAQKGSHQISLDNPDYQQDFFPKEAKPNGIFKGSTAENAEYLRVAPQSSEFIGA

Below are worked cases with known answers.
Give reported pIC50 for Nc1nc(Nc2cccc(Br)c2)c2ccn(Cc3ccc(Cl)c(Cl)c3)c2n1 (Epidermal growth factor receptor (Homo sapiens, UniProt P00533)) < 3.70

State, for Epidermal growth factor receptor (Homo sapiens, UniProt P00533), measured pIC50 of the molecule listed here: Nc1nc(Nc2cccc(Br)c2)c2ccn(Cc3ccccc3Cl)c2n1 < 3.70

Fill: pIC50 (Epidermal growth factor receptor (Homo sapiens, UniProt P00533)) for this molecule Nc1nc(Nc2cccc(Br)c2)c2ccn(Cc3ccc4ccccc4c3)c2n1 < 3.70

More entries:
Give pIC50 for Cc1ccccc1Cn1ccc2c(Nc3cccc(Br)c3)nc(N)nc21 tested on Epidermal growth factor receptor (Homo sapiens, UniProt P00533). 3.95

Answer briefly: pIC50 recorded on Epidermal growth factor receptor (Homo sapiens, UniProt P00533) for COc1cc(Cn2ccc3c(Nc4cccc(Br)c4)nc(N)nc32)cc(OC)c1OC < 3.70

Tell me pIC50 of Nc1nc(Nc2cccc(Br)c2)c2ccn(Cc3cccc4ccccc34)c2n1 when tested on Epidermal growth factor receptor (Homo sapiens, UniProt P00533). < 3.70

Find pIC50 for Nc1nc(Nc2cccc(Br)c2)c2ccn(Cc3ccccc3)c2n1 on Epidermal growth factor receptor (Homo sapiens, UniProt P00533) and write it down. 3.78

----------
Consider the following pIC50 values measured on Vascular endothelial growth factor receptor 1 (Homo sapiens, UniProt P17948).
Sequence (P17948 whole entry): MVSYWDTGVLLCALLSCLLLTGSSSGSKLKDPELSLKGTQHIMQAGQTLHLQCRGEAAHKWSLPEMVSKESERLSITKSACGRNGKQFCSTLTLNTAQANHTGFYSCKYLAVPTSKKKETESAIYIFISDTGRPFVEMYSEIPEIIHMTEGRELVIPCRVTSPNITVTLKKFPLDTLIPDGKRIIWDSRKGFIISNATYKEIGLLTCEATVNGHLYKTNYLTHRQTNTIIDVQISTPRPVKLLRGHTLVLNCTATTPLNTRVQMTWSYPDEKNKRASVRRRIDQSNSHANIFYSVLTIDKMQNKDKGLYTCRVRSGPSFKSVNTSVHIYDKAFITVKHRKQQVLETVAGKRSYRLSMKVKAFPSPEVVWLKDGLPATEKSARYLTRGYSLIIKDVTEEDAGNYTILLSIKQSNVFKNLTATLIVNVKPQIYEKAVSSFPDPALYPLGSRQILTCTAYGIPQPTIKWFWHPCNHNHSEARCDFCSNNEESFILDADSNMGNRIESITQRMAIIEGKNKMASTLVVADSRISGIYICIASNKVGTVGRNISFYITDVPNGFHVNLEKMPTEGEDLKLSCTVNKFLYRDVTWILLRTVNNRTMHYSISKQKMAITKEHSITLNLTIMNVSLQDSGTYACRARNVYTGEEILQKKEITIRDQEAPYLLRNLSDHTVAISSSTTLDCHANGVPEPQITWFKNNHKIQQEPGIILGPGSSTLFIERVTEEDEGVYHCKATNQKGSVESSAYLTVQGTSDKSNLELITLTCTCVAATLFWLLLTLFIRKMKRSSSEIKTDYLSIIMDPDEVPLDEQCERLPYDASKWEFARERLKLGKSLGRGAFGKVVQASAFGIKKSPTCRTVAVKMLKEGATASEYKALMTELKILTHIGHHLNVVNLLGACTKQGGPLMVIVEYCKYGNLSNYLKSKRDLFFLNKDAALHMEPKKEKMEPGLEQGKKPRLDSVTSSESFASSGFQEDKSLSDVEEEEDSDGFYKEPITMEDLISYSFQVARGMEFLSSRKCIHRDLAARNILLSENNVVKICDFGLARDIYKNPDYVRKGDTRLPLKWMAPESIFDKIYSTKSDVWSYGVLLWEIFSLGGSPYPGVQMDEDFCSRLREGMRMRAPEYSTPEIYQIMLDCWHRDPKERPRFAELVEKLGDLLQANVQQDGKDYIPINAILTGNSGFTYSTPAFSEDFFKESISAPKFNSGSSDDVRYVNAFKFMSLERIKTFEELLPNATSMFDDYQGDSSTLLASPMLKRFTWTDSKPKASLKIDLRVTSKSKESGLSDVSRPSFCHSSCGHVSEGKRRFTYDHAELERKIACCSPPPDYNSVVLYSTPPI
Scale: negative log10 of molar concentration, which is what pIC50 denotes.

// known answers, use as guide
# assay system Vascular endothelial growth factor receptor 1 (Homo sapiens, UniProt P17948): give pIC50 of Cc1ccccc1Cn1ccc2c(Nc3cccc(Br)c3)nc(N)nc21 3.89

Please indicate recorded pIC50 of Nc1nc(Nc2cccc(Br)c2)c2ccn(Cc3ccc(Cl)c(Cl)c3)c2n1 measured with Vascular endothelial growth factor receptor 1 (Homo sapiens, UniProt P17948). 3.93

Return reported pIC50 for target or system Vascular endothelial growth factor receptor 1 (Homo sapiens, UniProt P17948), item Nc1nc(Nc2cccc(Br)c2)c2ccn(Cc3ccc(Cl)cc3Cl)c2n1 . 3.86

Alright, here's another compound for you.
Print Vascular endothelial growth factor receptor 1 (Homo sapiens, UniProt P17948) pIC50 for Nc1nc(Nc2cccc(Br)c2)c2ccn(Cc3ccccc3Cl)c2n1 . 3.90

----------
tested.target: Epidermal growth factor receptor (Homo sapiens)
metric: pIC50
Reminder that pIC50 is minus the log10 of a molar concentration.

Give pIC50 only, for COc1ccc(OC)c(Cn2ccc3c(Nc4cccc(Br)c4)nc(N)nc32)c1 , using Epidermal growth factor receptor (Homo sapiens) data. 4.16

Provide the reported pIC50 (system: Epidermal growth factor receptor (Homo sapiens)) for Nc1nc(Nc2cccc(Br)c2)c2ccn(Cc3ccc(Cl)cc3)c2n1 4.00

Every entry's value here was drawn from ChEMBL document CHEMBL1955729.
